Origin of measurements: ChEMBL document CHEMBL3431459

assay.info: SUPPLEMENTARY: Lipophilicity (log D) Determination by high-throughput shake-flask
Format: physicochemical
condition.summary: octanol/water
measured.endpoint: logD

(P) CC(=O)Nc1cccc(-c2nc([C@H]3CCCCN3C(=O)COc3ccccc3)n(C)n2)c1
(Q) COc1ccc(Cl)cc1S(=O)(=O)N1COc2ccc(C(=O)Nc3ccc(C(=O)O)c(Cl)c3)cc21
Query: Task for the reader: decide whether P or Q has the larger logD. Returns: label corresponding to the selected item.
Result: P

---

assay.info: SUPPLEMENTARY: PAMPA permeability assay
Type: physicochemical
condition.summary: read-out: Permeability
measured.endpoint: Papp (×10⁻⁶ cm/s)

COc1ccc(Cl)cc1CN(C(=O)C(C)C)c1cc(C(=O)Nc2nc(CC(=O)O)cs2)ccc1Cl: 3.2

(a) O=C(COc1ccccc1)N1CCCC[C@@H]1c1noc(-c2cnnc3ccccc23)n1
(b) CCc1ccc(CCOc2ccc(CC3SC(=O)NC3=O)cc2)nc1 (stereo not drawn) [PIOGLITAZONE]
Query: Task for the reader: decide whether a or b has the larger Papp. Returns: label corresponding to the selected item.
Result: b

---

system.name: Carnitine O-palmitoyltransferase 1, liver isoform (Rattus norvegicus)
Sequence (P32198 whole entry, canonical isoform): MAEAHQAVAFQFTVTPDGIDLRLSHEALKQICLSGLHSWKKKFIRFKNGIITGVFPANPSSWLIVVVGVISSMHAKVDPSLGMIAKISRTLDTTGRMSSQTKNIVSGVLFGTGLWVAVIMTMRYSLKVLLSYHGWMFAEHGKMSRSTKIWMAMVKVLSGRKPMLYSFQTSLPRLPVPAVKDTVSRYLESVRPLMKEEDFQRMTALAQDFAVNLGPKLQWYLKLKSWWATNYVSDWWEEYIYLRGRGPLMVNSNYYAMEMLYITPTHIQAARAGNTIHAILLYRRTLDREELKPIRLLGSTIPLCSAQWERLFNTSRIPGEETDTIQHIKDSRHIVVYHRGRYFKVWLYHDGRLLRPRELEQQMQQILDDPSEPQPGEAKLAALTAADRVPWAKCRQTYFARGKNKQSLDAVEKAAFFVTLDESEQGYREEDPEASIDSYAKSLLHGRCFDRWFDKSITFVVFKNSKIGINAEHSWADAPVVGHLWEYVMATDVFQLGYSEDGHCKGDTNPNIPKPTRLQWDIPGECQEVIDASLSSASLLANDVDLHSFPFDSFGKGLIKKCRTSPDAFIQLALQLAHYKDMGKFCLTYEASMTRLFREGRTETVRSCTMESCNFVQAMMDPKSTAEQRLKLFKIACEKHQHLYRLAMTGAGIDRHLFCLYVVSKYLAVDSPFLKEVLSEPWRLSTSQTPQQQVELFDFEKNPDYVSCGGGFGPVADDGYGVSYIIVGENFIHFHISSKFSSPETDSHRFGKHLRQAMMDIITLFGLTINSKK
assay.info: SUPPLEMENTARY: Inhibition of Carnitine palmitoyltransferase 1, liver isoform
measured.endpoint: IC50 (nM)

COc1ccc(Cl)cc1S(=O)(=O)N1CCS(=O)(=O)c2ccc(C(=O)Nc3ccc(C(=O)O)cc3)cc21: 12.6

(P) O=C(COc1ccccc1)N1CCCC[C@@H]1c1csc(-c2ccc(C(F)(F)F)nc2)n1
(Q) O=C(COc1ccccc1)N1CCCC[C@@H]1c1csc(Cc2ccc(Cl)cc2)n1
(R) COc1ccc(C)cc1S(=O)(=O)n1ccc2ccc(C(=O)Nc3ccc(C(=O)O)cc3)cc21
(S) COc1ccc(Cl)cc1S(=O)(=O)c1cn(CCO)c2ccc(C(=O)Nc3ccccc3)cc12
Query: Place the items in sequence of falling IC50. Kindly provide the labels arranged according to the requested ordering.
Result: Q, P, S, R
(Q: 2900 nM, P: 985 nM, S: 20.5 nM, R: 11.9 nM)

---

system.name: Carnitine O-palmitoyltransferase 1, muscle isoform (Homo sapiens, UniProt Q92523)
Sequence (Q92523 whole entry, canonical isoform): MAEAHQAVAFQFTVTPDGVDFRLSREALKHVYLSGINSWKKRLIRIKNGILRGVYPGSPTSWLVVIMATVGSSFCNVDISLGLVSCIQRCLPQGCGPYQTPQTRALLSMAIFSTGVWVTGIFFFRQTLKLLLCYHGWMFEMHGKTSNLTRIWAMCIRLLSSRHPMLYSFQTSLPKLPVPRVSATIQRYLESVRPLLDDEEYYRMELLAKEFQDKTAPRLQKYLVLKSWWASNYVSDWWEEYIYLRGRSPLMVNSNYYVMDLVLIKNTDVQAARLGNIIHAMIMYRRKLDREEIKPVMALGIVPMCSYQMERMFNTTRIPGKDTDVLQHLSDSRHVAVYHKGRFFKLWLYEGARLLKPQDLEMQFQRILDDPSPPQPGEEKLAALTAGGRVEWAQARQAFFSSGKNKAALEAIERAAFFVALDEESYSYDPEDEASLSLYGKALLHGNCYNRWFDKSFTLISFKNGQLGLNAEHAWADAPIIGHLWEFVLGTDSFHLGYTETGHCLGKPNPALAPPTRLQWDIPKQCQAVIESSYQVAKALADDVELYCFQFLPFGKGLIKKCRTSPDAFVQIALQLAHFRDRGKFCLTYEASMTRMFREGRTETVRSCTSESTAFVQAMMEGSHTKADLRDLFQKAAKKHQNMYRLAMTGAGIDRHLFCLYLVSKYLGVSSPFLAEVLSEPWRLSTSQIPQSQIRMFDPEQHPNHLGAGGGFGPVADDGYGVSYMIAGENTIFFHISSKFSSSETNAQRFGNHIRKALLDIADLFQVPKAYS
assay.info: SUPPLEMENTARY: Inhibition of Carnitine palmitoyltransferase 1, muscle isoform
pIC50: −log10 of the molar value.
measured.endpoint: pIC50

Consider the worked cases shown below.
O=C1Cc2cc(-c3noc([C@H]4CCCCN4C(=O)COc4ccccc4)n3)ccc2N1: 4.56
O=C(COc1ccccc1)N1CCCC[C@@H]1c1nc(-c2ccc(Cl)nc2)cs1: < 4.00
COc1ccc(-n2nnc([C@H]3CCCCN3C(=O)COc3ccccc3)n2)cc1: < 4.00

Kindly review the next compound as well.
For reference, reported pIC50 for CC(=O)Nc1cc(F)cc(-c2n[nH]c([C@H]3CCCCN3C(=O)COc3ccccc3)n2)c1 stands at < 4.00

---

Listed here are molecules together with their documented solubility kinetic.
assay.info: SUPPLEMENTARY: Lyophilisation Solubility Assay (LYSA)
Assay type: physicochemical
condition.summary: read-out: Kinetic_solubility

Consider the worked cases shown below.
O=C(c1cc(-c2noc([C@H]3CCCCN3C(=O)COc3ccccc3)n2)ccn1)N1CCOCC1: > 523 µg/mL
NC(=O)c1cccc(-c2noc([C@H]3CCCCN3C(=O)COc3ccccc3)n2)c1: 42 µg/mL
O=C(O)c1ccc(-c2csc([C@H]3CCCCN3C(=O)COc3ccccc3)n2)cc1: > 563 µg/mL
N#Cc1ccc(-c2csc([C@H]3CCCCN3C(=O)COc3ccccc3)n2)cc1: < 1 µg/mL

For reference, reported solubility kinetic for Cc1nn(C)c(-c2noc([C@H]3CCCCN3C(=O)COc3ccccc3)n2)c1Cl stands at < 1 µg/mL

For reference, reported solubility kinetic for N#Cc1cccc(-c2nc([C@H]3CCCCN3C(=O)COc3ccccc3)no2)c1 stands at < 1 µg/mL

For reference, reported solubility kinetic for O=C1CCCN1c1cccc(-c2noc([C@H]3CCCCN3C(=O)COc3ccccc3)n2)c1 stands at < 1 µg/mL

---

assay.info: SUPPLEMENTARY: Lyophilisation Solubility Assay (LYSA)
Assay type: physicochemical
condition.summary: read-out: Kinetic_solubility
Listed here are molecules together with their documented solubility kinetic.

O=C(COc1ccccc1)N1CCCC[C@@H]1c1nnn(-c2ccc3[nH]ccc3c2)n1: < 1 µg/mL
O=C(COc1ccccc1)N1CCCC[C@@H]1c1noc(C2C[C@@H]3CC[C@H]2C3)n1 (stereo partly drawn): < 1 µg/mL

Kindly review the next molecule as well.
For reference, reported solubility kinetic for COc1ccc(Cl)cc1S(=O)(=O)c1cn(CS(C)(=O)=O)c2ccc(C(=O)Nc3ccccc3)cc12 stands at < 1 µg/mL

---

assay.info: SUPPLEMENTARY: Lipophilicity (log D) Determination by high-throughput shake-flask
Format: physicochemical
condition.summary: octanol/water
measured.endpoint: logD

CC(=O)Nc1cccc(-c2n[nH]c([C@H]3CCCCN3C(=O)COc3ccccc3)n2)c1: 2.61

(P) Cc1cc(-c2nc([C@H]3CCCCN3C(=O)COc3ccccc3)no2)no1
(Q) COc1ccc(Cl)cc1S(=O)(=O)c1cn(CCC(=O)O)c2ccc(C(=O)Nc3ccccc3)cc12
Query: Given P and given Q , which shows the smaller recorded logD? Returns: label corresponding to the selected item.
Result: Q
(Q: 0.56, P: 2.62)

---

system.name: Carnitine O-palmitoyltransferase 1, liver isoform (Homo sapiens)
Sequence (P50416 whole entry, canonical isoform): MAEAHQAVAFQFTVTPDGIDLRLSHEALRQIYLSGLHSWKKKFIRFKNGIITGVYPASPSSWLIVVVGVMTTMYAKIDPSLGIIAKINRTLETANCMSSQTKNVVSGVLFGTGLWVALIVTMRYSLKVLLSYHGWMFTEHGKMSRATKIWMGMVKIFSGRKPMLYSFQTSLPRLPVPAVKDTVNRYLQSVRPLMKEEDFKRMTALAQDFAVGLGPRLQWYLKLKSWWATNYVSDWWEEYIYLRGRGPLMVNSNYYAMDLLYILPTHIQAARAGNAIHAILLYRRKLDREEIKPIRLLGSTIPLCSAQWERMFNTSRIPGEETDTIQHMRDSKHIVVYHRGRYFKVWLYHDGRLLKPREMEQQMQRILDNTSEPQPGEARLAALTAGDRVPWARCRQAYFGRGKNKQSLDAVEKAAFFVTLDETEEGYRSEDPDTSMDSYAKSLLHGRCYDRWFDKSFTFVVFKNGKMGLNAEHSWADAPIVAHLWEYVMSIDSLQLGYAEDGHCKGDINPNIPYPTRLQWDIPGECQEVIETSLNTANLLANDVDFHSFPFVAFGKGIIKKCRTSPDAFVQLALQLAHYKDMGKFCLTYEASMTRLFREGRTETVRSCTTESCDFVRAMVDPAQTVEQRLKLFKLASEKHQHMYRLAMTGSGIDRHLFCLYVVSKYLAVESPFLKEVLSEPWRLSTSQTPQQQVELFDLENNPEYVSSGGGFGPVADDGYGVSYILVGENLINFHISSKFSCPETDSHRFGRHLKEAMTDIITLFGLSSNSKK
assay.info: SUPPLEMENTARY: Inhibition of Carnitine palmitoyltransferase 1, liver isoform
pIC50: −log10 of the molar value.
measured.endpoint: pIC50

COc1ccc(Cl)cc1S(=O)(=O)N1COc2c(F)cc(C(=O)Nc3ccc(C(=O)O)c(Cl)c3)cc21: 6.89
COc1ccc(Cl)cc1CN1C(=O)OC(C)(C)c2ccc(C(=O)Nc3ccc(CC(=O)O)cc3)cc21: 6.83

(P) Cc1cc(C)cc(S(=O)(=O)N2CCS(=O)(=O)c3ccc(C(=O)Nc4ccc(C(=O)O)cc4)cc32)c1
(Q) O=C(COc1ccccc1)N1CCCCC1c1cc(-c2ccccc2)n[nH]1 (stereo not drawn)
Query: Given P and given Q , which shows the smaller recorded pIC50? Returns: label corresponding to the selected item.
Result: Q

---

system.name: Carnitine O-palmitoyltransferase 1, muscle isoform (Homo sapiens, UniProt Q92523)
assay.info: SUPPLEMENTARY: Inhibition of Carnitine palmitoyltransferase 1, muscle isoform
Parameters: species or system Muscle tissue
pIC50: −log10 of the molar value.
measured.endpoint: pIC50

Consider the worked cases shown below.
COc1ccc(Cl)cc1S(=O)(=O)N1CCOc2ccc(C(=O)Nc3ncc(CC(=O)O)s3)cc21: 5.84
COCCN(c1cc(C(=O)Nc2ncc(CC(=O)O)s2)cc2c1OCO2)S(=O)(=O)c1cc(Cl)ccc1OC: 6.04
COc1ccc(Cl)cc1S(=O)(=O)c1nn(CC(=O)O)c2ccc(C(=O)Nc3ccccc3)cc12: 4.41
COc1ccc(Cl)cc1S(=O)(=O)N1CCS(=O)(=O)c2ccc(C(=O)Nc3ccc(C(=O)O)c(Cl)c3)cc21: 5.10
Cc1cc(C)cc(S(=O)(=O)N2CCS(=O)(=O)c3ccc(C(=O)Nc4ccc(C(=O)O)cc4)cc32)c1: 5.28
COc1ccc(Cl)cc1S(=O)(=O)N1CCSc2ccc(C(=O)Nc3ccc(C(=O)O)c(Cl)c3)cc21: 5.82

(1) O=C(COc1ccccc1)N1CCCC[C@@H]1c1nc(-c2ccc(Br)s2)cs1
(2) COc1ccc(Cl)cc1S(=O)(=O)N(c1cc(C(=O)Nc2ccc(CC(=O)O)cc2)cc2c1OCO2)C(C)C
Query: Given 1 and given 2 , which shows the smaller recorded pIC50? Returns: label corresponding to the selected item.
Result: 1
(1: 5.25, 2: 6.22)

(I) COc1ccc(Cl)cc1S(=O)(=O)N1CCCc2ccc(C(=O)Nc3ccc(C(=O)O)c(F)c3)cc21
(II) CCCN(c1cc(C(=O)Nc2nc(CC(=O)O)cs2)cc2c1OCO2)S(=O)(=O)c1cc(Cl)ccc1OC
Query: Given I and given II , which shows the smaller recorded pIC50? Returns: label corresponding to the selected item.
Result: I
(I: 5.52, II: 6.21)

---

system.name: Carnitine O-palmitoyltransferase 1, muscle isoform (Homo sapiens, UniProt Q92523)
assay.info: SUPPLEMENTARY: Inhibition of Carnitine palmitoyltransferase 1, muscle isoform
pIC50: −log10 of the molar value.
Listed here are compounds together with their documented pIC50.

For reference, reported pIC50 for CC(C)C(=O)Nc1cccc(-c2n[nH]c([C@H]3CCCCN3C(=O)COc3ccccc3)n2)c1 stands at < 4.00

For reference, reported pIC50 for O=C(COc1ccccc1)N1CCCC[C@@H]1c1nc(-c2ccccc2F)n[nH]1 stands at < 4.00

For reference, reported pIC50 for O=C(COc1ccccc1)N1CCCC[C@@H]1c1noc(-c2cccc3[nH]cnc23)n1 stands at < 4.00
